SUBJECT_OF_TEST: full-length beta-Catenin (Uniprot ID P35222) (Homo sapiens, UniProt P35222)
Construct: 10 nM full-length beta-Catenin (Uniprot ID P35222)
Sequence (P35222 1-781): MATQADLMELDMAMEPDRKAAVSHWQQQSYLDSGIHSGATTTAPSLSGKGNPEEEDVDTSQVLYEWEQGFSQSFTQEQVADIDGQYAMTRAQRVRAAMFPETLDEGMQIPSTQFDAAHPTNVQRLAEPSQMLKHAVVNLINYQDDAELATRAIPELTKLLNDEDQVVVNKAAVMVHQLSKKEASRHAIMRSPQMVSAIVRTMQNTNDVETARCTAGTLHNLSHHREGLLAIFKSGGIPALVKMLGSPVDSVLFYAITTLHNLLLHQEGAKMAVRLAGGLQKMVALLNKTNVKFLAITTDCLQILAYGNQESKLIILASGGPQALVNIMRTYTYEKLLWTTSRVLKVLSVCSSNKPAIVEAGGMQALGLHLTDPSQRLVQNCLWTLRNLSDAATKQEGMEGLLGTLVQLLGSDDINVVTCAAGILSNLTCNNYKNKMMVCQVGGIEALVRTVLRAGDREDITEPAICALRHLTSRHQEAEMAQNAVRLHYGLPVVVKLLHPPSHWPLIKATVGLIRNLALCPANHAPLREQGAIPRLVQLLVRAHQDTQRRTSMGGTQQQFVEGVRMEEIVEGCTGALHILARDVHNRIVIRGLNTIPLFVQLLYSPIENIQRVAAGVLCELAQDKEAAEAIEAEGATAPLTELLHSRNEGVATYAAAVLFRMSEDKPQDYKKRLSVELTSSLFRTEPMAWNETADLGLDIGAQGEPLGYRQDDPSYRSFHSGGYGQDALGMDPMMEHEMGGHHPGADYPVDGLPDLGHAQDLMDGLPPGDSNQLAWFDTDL
TEST_PROTOCOL: Fluorescence polarization IC50 (beta-catenin / 5FAM-TCF4 10-53 competition)
Assay type: binding
DETAILS: fluorescence polarization; read-out: beta-Catenin FP IC50
RESULT_TYPE: IC50 (nM)
Respond with the bare value in nM.

Below are worked cases with known answers.
>  <COMPOUND>
CC(=O)N1CCC[C@]12CC=CCCCC1(CCCC=CCCCOC(=O)N3CC[C@@](C(=O)N[C@@H](Cc4ccsc4)C(=O)N[C@@H](Cc4csc5ccccc45)C(=O)N[C@@H](CCC(N)=O)C(N)=O)(C3)NC(=O)[C@H](CC(C)C)NC(=O)[C@H](Cc3ccccc3)NC(=O)[C@H](C)NC(=O)[C@H](C)NC(=O)[C@H](CC(=O)O)NC(=O)[C@H](CC(=O)S)NC1=O)NC(=O)[C@H](CC(C)(C)C)NC(=O)[C@H](CC(=O)O)NC2=O (stereo partly drawn) [I-1945]

>  <RESULT_TYPE>
IC50

>  <RECORDED_MEASUREMENT>
918

$$$$
>  <COMPOUND>
CC[C@H](C)[C@@H]1NC(=O)[C@H](CC(=O)O)NC(=O)[C@]2(CC=CCCCC3(CCCC=CCCCCCC[C@@](C)(C(=O)N[C@@H](Cc4ccsc4)C(=O)N[C@@H](Cc4csc5ccccc45)C(=O)N[C@@H](CCC(N)=O)C(N)=O)NC(=O)[C@H](CC(N)=O)NC(=O)[C@H](Cc4ccccc4)NC(=O)[C@H](C)NC(=O)[C@H](C)NC(=O)[C@H](CN(CC(=O)O)CC(F)(F)F)NC(=O)[C@H](CC(=O)O)NC3=O)NC1=O)CCCN2C(C)=O (stereo partly drawn) [I-701]

>  <RESULT_TYPE>
IC50

>  <RECORDED_MEASUREMENT>
34

$$$$

Q) May I ask what IC50 has been recorded for CC(=O)N1CCC[C@]12CC=CCCCC1(CCCC=CCCCCCC[C@@](C)(C(=O)NC(Cc3cncn3C)C(=O)N[C@@H](Cc3csc4ccccc34)C(=O)N[C@@H](CCC(N)=O)C(N)=O)NC(=O)[C@H](CC(N)=O)NC(=O)[C@H](Cc3ccccc3)NC(=O)[C@H](C)NC(=O)[C@H](C)NC(=O)[C@H](CCC(=O)O)NC(=O)[C@H](CC(=O)O)NC1=O)NC(=O)[C@H](C)NC(=O)[C@H](CC(=O)O)NC2=O (stereo partly drawn) [I-438] ?
A) 5000
